tested on: F380Y; test: modulators of BK channel variants, profiling panel, selectivity assay, cell-based, U2OS BacMam, thallium flux, beta subunits (AID 1259406); settings: at 30 µM;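 note: initial slope of Thallos dye fluorescence rise after thallium is added; log ratio against the mean of 0.3% DMSO vehicle wells on the same plate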
testReadout: log fold change Tl+ flux
Reply: number alone, nothing else.

-- ask Missing value: log fold change Tl+ flux, F380Y, entry `O=c1[nH]cnc2scc(-c3cccs3)c12` . Fill in?
-- reply -0.0452

-- ask Repeat for the following compound: `COc1nc(C)nc(Cl)c1NC1=NCCN1`
-- reply -0.00461

----------
Catalogue of compounds with associated inhibition
tested on: Hepatitis C virus NS3 helicase; assay: HCV NS3 helicase inhibitors, primary screen, biochemical, fluorescence polarization, LOPAC1280 library (AID 687035); details: Purified HCV NS3 helicase, Cy5-dT15 ssDNA binding fluorescence polarization; hits give high values; concentration not given here
Supply the numeric figure in %, leaving out any unit text.

Recorded inhibition, per entry:
INSERT INTO results (compound, valueunits, testresult) VALUES
  ('COC(=O)[C@H](NC(=O)c1cc(-c2ccccc2)nc2ccccc12)c1ccccc1', '%', -1),
  ('O=[N+]([O-])c1cccc2c(Br)[nH]nc12', '%', -1),
  ('CC(C)NCC(O)c1ccc(NS(C)(=O)=O)cc1 (stereo unspecified)', '%', -2),
  ('Oc1ccc(-c2nc(-c3ccc(F)cc3)c(-c3ccncc3)[nH]2)cc1', '%', -3);

Then this compound:
-- ask What does the data say about its inhibition? Entry: C=CCN1CCc2cc(O)c(O)cc2C(c2ccccc2)C1 (stereo unspecified)
-- reply -4

Where do these numbers come from? They come from PubChem BioAssay.
